EXPERIMENTAL_TARGET: T1, mouse ICOS (full length, on cells) (mouse, UniProt Q9WVS0 21-200)
T1 construct: also called CHO-mICOS; mouse ICOS+ CHO cells
T1 sequence: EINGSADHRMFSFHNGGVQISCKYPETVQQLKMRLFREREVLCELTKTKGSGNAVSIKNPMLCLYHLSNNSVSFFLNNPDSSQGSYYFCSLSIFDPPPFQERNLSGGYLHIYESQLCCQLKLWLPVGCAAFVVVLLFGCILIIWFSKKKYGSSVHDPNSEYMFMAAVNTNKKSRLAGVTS
ASSAY_SUMMARY: flow cytometry on ICOS+ CHO cells
READOUT_NAME: binding result

BINDER	RESULT
7F12 (antibody, V domains shown, Armenian hamster monoclonal tested as IgG; also called hamster anti-ICOS 7F12) VH: EVQLVESGGGLVKPGGSLTLSCAASGFTFSDYWMDWVRQGPGKGLEWVGNIDEDGSTTYYAPFVKGRFTISRDNAKKTLYLQMNSVKSEDTATYYCTRWGRYAFDSWGQGTLVTVSS VL: DIVMTQSPSSLAVSPGDKVTINCKSSQSLLSGNYNYLAWYQQKTGQAPKLLIFYASTRHTGVPDRFMGSGSGTDFSLTINSFQTEDLGDYYCQHHYSTPPTFGPGTKLEIK	binds
35A9 (antibody, V domains shown, Armenian hamster monoclonal tested as IgG; also called hamster anti-ICOS 35A9) VH: EVQLVESGGGLVKPGGSLKLSCAASGFTFSDYWMDWVRQAPGKGLEWVGNIDEDGSIAEYSPFVKGRFTISRDNVKNTLYLQMNSVKSEDTATYYCSRWGRFAFDSWGQGTLVTVSS VL: DIVMTQSPSSLAVSAGDRVTINCKSSQSLLSGSFNYLTWYQQKTGQAPKLLIFYASTRHTGVPDRFMGSGSGTDFTLTINSFQTEDLGDYYCHHHYNAPPTFGPGTKLELR	binds
36E10 (antibody, V domains shown, Armenian hamster monoclonal tested as IgG; also called hamster anti-ICOS 36E10) VH: EVQLVESGGGLVKPGGSLKLSCAASGFTFSDYWMDWVRQAPGKGLEWVGNIDEDGSITEYSPFVKGRFTISRDNVKNILYLQMNSVKSEDTATYYCTRWGRFAFDSWGQGTLVTVSS VL: DIVMTQSPSSLAVSPGDRVTINCKSSQSLLSGSFHYLTWYQQKTGQAPKLLIFYASTRHTGVPDRFMGSGSGTDFTLTINSFQTEDLGDYYCHHHYNAPPTFGPGTKLELR	binds
